# Test system: Hey (Ovarian Carcinoma)
# method_description: combination Emax (second highest fraction inhibited in the dose matrix, 72 h); higher = more inhibition; extreme values may be limits of the assay
measurement_kind: combination Emax
Lab note: record the figure alone, no unit after it.

Reference set (3 entries):
C[C@@H](c1ccc2nccn2c1)n1nnc2ncc(-c3cnn(C)c3)nc21 [Savolitinib] + Cc1c2c(nn1C)CSCc1cc(n(C)n1)CSc1cc(c3ccccc3c1)OCCCc1c(C(=O)O)n(C)c3c-2c(Cl)ccc13 [AZD5991] (first compound max 1 µM, 7x7, partner max 1 µM) ... 0.127
CN(C)CCCOc1ccc(-c2ccc3ncc4c(c3c2)n(C2CCOCC2)c(=O)n4C)cn1 [AZD0156] + CCN(CCO)CCCOc1ccc2c(Nc3cc(CC(=O)Nc4cccc(F)c4)[nH]n3)ncnc2c1 [AZD2811] (first compound max 1 µM, 7x7, partner max 1 µM) ... 0.229
C=CCn1c(=O)c2cnc(Nc3ccc(N4CCN(C)CC4)cc3)nc2n1-c1cccc(C(C)(C)O)n1 [AZD1775] + C[C@@H]1COCCN1C2=NC(=NC(=C2)C3(CC3)[S@](=N)(=O)C)C4=C5C=CNC5=NC=C4 [AZD6738] (first compound max 1 µM, partner max 10 µM) ... 0.809

## Task Give the value of combination Emax reported for the following: C[C@@H]1COCCN1c1cc(C2([S@](C)(=N)=O)CC2)nc(-c2ccnc3[nH]ccc23)n1 [AZD6738] + O=C(c1cc(Cc2n[nH]c(=O)c3ccccc23)ccc1F)N1CCN(C(=O)C2CC2)CC1 [Olaparib] (first compound max 10 µM, 7x7, partner max 10 µM)
## Result 0.699

## Task Give the value of combination Emax reported for the following: CCN(CCO)CCCOc1ccc2c(Nc3cc(CC(=O)Nc4cccc(F)c4)[nH]n3)ncnc2c1 [AZD2811] + C=CCn1c(=O)c2cnc(Nc3ccc(N4CCN(C)CC4)cc3)nc2n1-c1cccc(C(C)(C)O)n1 [AZD1775] (first compound max 1 µM, partner max 1 µM)
## Result 0.497

###

# Test system: HAL-01 (B-Lymphoblastic Leukemia)
# method_description: combination Emax (second highest fraction inhibited in the dose matrix, 72 h); higher = more inhibition; extreme values may be limits of the assay
Examples of compounds with documented combination Emax follow.
Lab note: record the figure alone, no unit after it.

CN(CCO)CC[C@H](CSc1ccccc1)Nc1ccc(S(=O)(=O)NC(=O)c2ccc(N3CCC([C@@H](O)c4ccccc4-c4ccc(Cl)cc4)CC3)cc2)cc1S(=O)(=O)C(F)(F)F [AZD4320] + C[C@@H]1COCCN1C2=NC(=NC(=C2)C3(CC3)[S@](=N)(=O)C)C4=C5C=CNC5=NC=C4 [AZD6738] (first compound max 1 µM, 7x7, partner max 10 µM) ... 1

Now turn to the next compound.
## Task GET combination Emax | system: HAL-01 (B-Lymphoblastic Leukemia) | item: Cc1cc2ncnn2cc1Nc1ncc2c(n1)n(C1CCOCC1)c(=O)n2C [AZD7648] + C[C@@H]1COCCN1C2=NC(=NC(=C2)C3(CC3)[S@](=N)(=O)C)C4=C5C=CNC5=NC=C4 [AZD6738] (first compound max 10 µM, 7x7, partner max 10 µM)
## Result 0.984

###

Examples of compounds with documented combination Emax follow.
# Test system: NCI-H1355 (Lung Adenocarcinoma)
# method_description: combination Emax (second highest fraction inhibited in the dose matrix, 72 h); higher = more inhibition; extreme values may be limits of the assay

Reference set (3 entries):
CS(=O)(=O)CCNCc1ccc(-c2ccc3ncnc(Nc4ccc(OCc5cccc(F)c5)c(Cl)c4)c3c2)o1 [Lapatinib] + Cn1cnc2c(F)c(Nc3ccc(Br)cc3Cl)c(C(=O)NOCCO)cc21 [Selumetinib] (first compound max 10 µM, 7x7, partner max 10 µM) ... 0.472
COc1nnc2ccc(N3CCC(c4ccc(OCCN5CCN(C)C(=O)[C@H]5C)cc4)CC3)nn12 [AZD5153] + Cc1c2c(nn1C)CSCc1cc(n(C)n1)CSc1cc(c3ccccc3c1)OCCCc1c(C(=O)O)n(C)c3c-2c(Cl)ccc13 [AZD5991] (first compound max 1 µM, 7x7, partner max 1 µM) ... 0.358
Cc1c2c(nn1C)CSCc1cc(n(C)n1)CSc1cc(c3ccccc3c1)OCCCc1c(C(=O)O)n(C)c3c-2c(Cl)ccc13 [AZD5991] + C=CCn1c(=O)c2cnc(Nc3ccc(N4CCN(C)CC4)cc3)nc2n1-c1cccc(C(C)(C)O)n1 [AZD1775] (first compound max 1 µM, partner max 1 µM) ... 0.57

Now turn to the next compound.
## Task Give the value of combination Emax reported for the following: Cc1c2c(nn1C)CSCc1cc(n(C)n1)CSc1cc(c3ccccc3c1)OCCCc1c(C(=O)O)n(C)c3c-2c(Cl)ccc13 [AZD5991] + C1CN(CCC1(C(=O)N[C@@H](CCO)C2=CC=C(C=C2)Cl)N)C3=NC=NC4=C3C=CN4 [Capivasertib] (first compound max 1 µM, 7x7, partner max 3 µM)
## Result 0.227

###

# System: ME-180 (Cervical Carcinoma)
# method_description: combination Emax (second highest fraction inhibited in the dose matrix, 72 h); higher = more inhibition; extreme values may be limits of the assay
measurement_kind: combination Emax
Lab note: record the figure alone, no unit after it.

COc1cccc2c1C(=O)c1c(O)c3c(c(O)c1C2=O)C[C@@](O)(C(=O)CO)C[C@@H]3O[C@H]1C[C@H](N)[C@H](O)[C@H](C)O1 [Doxorubicin] + Cc1cc2ncnn2cc1Nc1ncc2c(n1)n(C1CCOCC1)c(=O)n2C [AZD7648] (first compound max 1 µM, 7x7, partner max 10 µM) ... 0.958

## Task Give the value of combination Emax reported for the following: Cc1c2c(nn1C)CSCc1cc(n(C)n1)CSc1cc(c3ccccc3c1)OCCCc1c(C(=O)O)n(C)c3c-2c(Cl)ccc13 [AZD5991] + CS(=O)(=O)CCNCc1ccc(-c2ccc3ncnc(Nc4ccc(OCc5cccc(F)c5)c(Cl)c4)c3c2)o1 [Lapatinib] (first compound max 1 µM, 7x7, partner max 10 µM)
## Result 0.492

###

# Test system: NCI-H1838 (Lung Adenocarcinoma)
# method_description: combination Emax (second highest fraction inhibited in the dose matrix, 72 h); higher = more inhibition; extreme values may be limits of the assay
Examples of compounds with documented combination Emax follow.
Lab note: record the figure alone, no unit after it.

Reference set (4 entries):
COc1nnc2ccc(N3CCC(c4ccc(OCCN5CCN(C)C(=O)[C@H]5C)cc4)CC3)nn12 [AZD5153] + CCN(CCO)CCCOc1ccc2c(Nc3cc(CC(=O)Nc4cccc(F)c4)[nH]n3)ncnc2c1 [AZD2811] (first compound max 1 µM, 7x7, partner max 1 µM) ... 0.441
CCc1c2c(nc3ccc(O)cc13)-c1cc3c(c(=O)n1C2)COC(=O)[C@]3(O)CC [SN-38] + CN(C)CCCOc1ccc(-c2ccc3ncc4c(c3c2)n(C2CCOCC2)c(=O)n4C)cn1 [AZD0156] (first compound max 0.3 µM, 7x7, partner max 1 µM) ... 0.607
CC(=O)c1c(C)c2cnc(Nc3ccc(N4CCNCC4)cn3)nc2n(C2CCCC2)c1=O [Palbociclib] + Cc1c2c(nn1C)CSCc1cc(n(C)n1)CSc1cc(c3ccccc3c1)OCCCc1c(C(=O)O)n(C)c3c-2c(Cl)ccc13 [AZD5991] (first compound max 10 µM, 7x7, partner max 1 µM) ... 0.363
C[C@@H](c1ccc2nccn2c1)n1nnc2ncc(-c3cnn(C)c3)nc21 [Savolitinib] + CN(CC[C@H](CSC1=CC=CC=C1)NC2=C(C=C(C=C2)S(=O)(=O)NC(=O)C3=CC=C(C=C3)N4CCC(CC4)[C@H](C5=CC=CC=C5C6=CC=C(C=C6)Cl)O)S(=O)(=O)C(F)(F)F)CCO [AZD4320] (first compound max 1 µM, 7x7, partner max 1 µM) ... 0.205

## Task Give the value of combination Emax reported for the following: CC1(C)CCC(CN2CCN(c3ccc(C(=O)NS(=O)(=O)c4ccc(NCC5CCOCC5)c([N+](=O)[O-])c4)c(Oc4cnc5[nH]ccc5c4)c3)CC2)=C(c2ccc(Cl)cc2)C1 [Venetoclax] + CN(C)CCCOc1ccc(-c2ccc3ncc4c(c3c2)n(C2CCOCC2)c(=O)n4C)cn1 [AZD0156] (first compound max 1 µM, 7x7, partner max 1 µM)
## Result 0.303

## Task Give the value of combination Emax reported for the following: Cc1cc2ncnn2cc1Nc1ncc2c(n1)n(C1CCOCC1)c(=O)n2C [AZD7648] + C=CCn1c(=O)c2cnc(Nc3ccc(N4CCN(C)CC4)cc3)nc2n1-c1cccc(C(C)(C)O)n1 [AZD1775] (first compound max 10 µM, partner max 1 µM)
## Result 0.569

## Task Give the value of combination Emax reported for the following: CN(CCO)CC[C@H](CSc1ccccc1)Nc1ccc(S(=O)(=O)NC(=O)c2ccc(N3CCC([C@@H](O)c4ccccc4-c4ccc(Cl)cc4)CC3)cc2)cc1S(=O)(=O)C(F)(F)F [AZD4320] + Cc1cc2ncnn2cc1Nc1ncc2c(n1)n(C1CCOCC1)c(=O)n2C [AZD7648] (first compound max 1 µM, 7x7, partner max 10 µM)
## Result 0.289
